system: Escherichia coli; assay: Antibacterial activity against Escherichia coli W3110; assay type: functional
inhibition zone (IZ) reference
# include the unit after the value

- compound: "CC(N)CC(O)(P(=O)(O)O)P(=O)(O)O (stereo not drawn)"
  data-value: "0 mm"
- compound: "O=P(O)(O)C(Nc1ccc2c(c1)CCC2)P(=O)(O)O"
  data-value: "0 mm"
- compound: "CO[C@@H]1[C@@H](OC(N)=O)[C@@H](O)[C@H](Oc2ccc3c(O)c(NC(=O)c4ccc(O)c(CC=C(C)C)c4)c(=O)oc3c2C)OC1(C)C [NOVOBIOCIN]"
  data-value: "9 mm"

Ask: Entry under review: CC(C)c1cccc(NC(P(=O)(O)O)P(=O)(O)O)c1 . Reported inhibition zone (IZ)?
Result: 8 mm

Ask: Lookup CC(C)CCNC(P(=O)(O)O)P(=O)(O)O
Result: 0 mm

Ask: Lookup O=P(O)(O)C(NC1CCCCCC1)P(=O)(O)O [INCADRONIC ACID]
Result: 0 mm
